measured_target: Acetylcholine receptor; alpha1/beta1/delta/gamma (Homo sapiens, UniProt P02708+P07510+P11230+Q07001)
protocol_details: Displacement of [3H]-epibatidine from alpha1betagammadelta nAChR in human TE671 cellular membranes at 5 uM after 2 hrs by liquid scintillation counting
Format: cell membranes
condition_info: TE-671
measurement_kind: inhibition

Solved cases (3 shown):
c1ccc2oc(C3=NC4(CN3)CN3CCC4CC3)cc2c1 (stereo unspecified) : 26%
COc1ccc(C2=NCC3(CN4CCC3CC4)NC(=O)C2)cc1 (stereo unspecified) : 38%
Nc1c(C2=NC3(CN2)CN2CCC3CC2)oc2ccccc12 (stereo unspecified) : 38%

Please give measured inhibition of the following entry: `COc1cc(O)ccc1/C=C1\CCCN=C1c1cccnc1` 72%

Please give measured inhibition of the following entry: O=C1CC(c2ccc(Br)s2)=NCC2(CN3CCC2CC3)N1 (stereo unspecified) 28%

Please give measured inhibition of the following entry: Oc1c(C2=NC3(CN2)CN2CCC3CC2)oc2ccccc12 (stereo unspecified) 15%

###

Let's look at some compounds and their measured inhibition.
measured_target: Neuronal acetylcholine receptor; alpha4/beta2 (Rattus norvegicus) (UniProt P09483+P12390)
protocol_details: Displacement of [3H]-epibatidine from alpha4beta2 nAChR in rat cortical membranes at 5 uM after 2 hrs by liquid scintillation counting
Type: cell membranes
condition_info: Membrane
Dear colleague, please return just the value in %, with no unit written.

Oc1c(C2=NC3(CN2)CN2CCC3CC2)oc2ccccc12 (centres undefined) : 32
O=C1CC(c2ccccc2)=NCC2(CN3CCC2CC3)N1 (centres undefined) : 15
COc1ccc(C2=NCC3(CN4CCC3CC4)NC(=O)C2)cc1 (centres undefined) : 42

Please find the next compound below.
Return reported inhibition for target or system Neuronal acetylcholine receptor; alpha4/beta2 (Rattus norvegicus) (UniProt P09483+P12390), item COc1ccccc1C1=NCC2(CN3CCC2CC3)NC(=O)C1 (centres undefined) . 7
